- System: green peach aphid (Myzus persicae)
- method: Test H: foliar movement of compound through the plant, green peach aphid mortality (radish)
- Assay type: in vivo
- particulars: applied at 1000 ppm, 20 microliters by pipet to two leaves of radish plant; infested after 2 days, held 8 additional days; insects fed on untreated plant tissues
- Excerpt: For evaluating movement of compounds in plants and control of green peach aphid (Myzus persicae) and potato leafhopper (Empoasca fabae) after foliar movement of compound through the plant, the test unit consisted of a small open container with a 12-15-day-old radish plant (for green peach aphid test) or 5-6 day old Longio bean plant (for potato leafhopper test). […]
Please provide measured % GPA M (green peach aphid mortality) for the entries that follow.
One number for each entry, in %.

Look over these answered cases.
Cc1cc(C#N)cc(C(N)=O)c1NC(=O)c1cc(Br)nn1-c1ncccc1Cl 100
Cc1cc(C#N)cc(C(N)=O)c1NC(=O)c1cc(C(F)(F)F)nn1-c1ncccc1Cl 87
CNC(=O)c1cc(C#N)cc(C)c1NC(=O)c1cc(Cl)nn1-c1ncccc1Cl 81
Cc1cc(C#N)cc(C(=O)NCC#N)c1NC(=O)c1cc(Cl)nn1-c1ncccc1Cl 67

Dear colleague, could you send me % GPA M (green peach aphid mortality) for each of the items below? Thanks.
1. Cc1cc(C#N)cc(C(=O)NCC#N)c1NC(=O)c1cc(Br)nn1-c1ncccc1Cl
2. CNC(=O)c1cc(C#N)cc(C)c1NC(=O)c1cc(Br)nn1-c1ncccc1Cl
3. Cc1cc(C#N)cc(C(N)=O)c1NC(=O)c1cc(Cl)nn1-c1ncccc1Cl

1: 57; 2: 94; 3: 78
